Species on record: Rattus norvegicus
Test Description: Open TG-GATES - Regimen: Daily Repeat
Assay type: toxicity, organism-based, Sprague-Dawley
Design: regimen Daily Repeat, gender Male, age 6 weeks
Assay Conditions: in vivo, po, 300 mg/kg, […], tissue Plasma, route gavage, dose level Middle, time 7 day

Compound | BUN
CCN1CCCC1CNC(=O)c1cc(S(N)(=O)=O)ccc1OC (centres undefined) [SULPIRIDE] | 17 mg/dL
O=C(O)c1cccnc1 [NIACIN] | 17.6 mg/dL
O=C(N[C@H](CO)[C@H](O)c1ccc([N+](=O)[O-])cc1)C(Cl)Cl [CHLORAMPHENICOL] | 15 mg/dL
CC(C)(S)[C@@H](N)C(=O)O [PENICILLAMINE] | 15.6 mg/dL
